Tested on: SK-OV-3 ovarian
ASSAY DETAILS: NCI tumour cell line growth inhibition, 48 h
MEASURED PARAMETER: TGI

# MOLECULE, RESULT VALUE
records = [
    ("Clc1ccc(N=c2oc3ccccc3cc2-c2nc3ccccc3[nH]2)c(Cl)c1", "> 100 µM"),
    ("OC12CC/C(=N/OCc3ccccc3)CC1c1ccccc12 (stereo not drawn)", "> 100 µM"),
    ("COc1cc(/C=C2\\CCC(C)C3=C2NC(=S)NC3c2cc(OC)c(OC)c(OC)c2)cc(OC)c1OC (stereo not drawn)", "> 100 µM"),
    ("CC(=O)c1cc2c(s1)C(=O)c1ccccc1C2=O", "> 80.3 µM"),
    ("O=C1NC2(CN3CCC2CC3)C(=O)N1CN(Cc1ccccc1)c1ccccc1 (stereo not drawn)", "> 100 µM"),
    ("CC1(C)C2CCC3(C2)CS(=O)(=O)N2OC231 (stereo not drawn)", "> 100 µM"),
    ("CC(=O)OC1[C@H]2c3cc4c(cc3CN3CCC(=C[C@@H]1O)C23)OCO4 (stereo partly drawn)", "> 100 µM"),
    ("C[C@]12CC[C@@H]3c4ccc(O)cc4C(O)C[C@H]3[C@@H]1CCC2=O (stereo partly drawn)", "> 100 µM"),
    ("CC(=O)O[C@@H]1C2C(=O)OC(=O)C2C2CCC[C@]23O[C@H]13 (stereo partly drawn)", "> 100 µM"),
    ("COc1cc(C2SCC(=O)N2c2ccc(Oc3ccc(Cl)cc3)c(Cl)c2)cc(OC)c1OC (stereo not drawn)", "33.6 µM"),
    ("Cc1ccc(SC(=O)N2C(=S)NC(=NC3CCCCC3)C23CCCCC3)cc1", "> 100 µM"),
    ("FCc1ncc(-c2ccc(C(F)(F)F)cc2)c(NC2CCCCCC2)n1", "> 10 µM"),
    ("O=c1[nH]nc(Cc2ccccc2)n1-n1cnnc1", "> 100 µM"),
    ("S=C(S)NCC1CCC(CNC(=S)S)CC1 (stereo not drawn)", "> 100 µM"),
    ("COc1cc(/C=C2/N=C(c3ccccc3)N(C3=NNC4(C(=O)N3)c3ccccc3-c3ccccc34)NC2=O)ccc1O", "37.8 µg/mL"),
    ("COc1cc(S(C)(=O)=O)ccc1Nc1nc2ccc(-c3ccc(NC(=O)[C@H](C)c4ccc(F)cc4)cc3)cn2n1", "> 100 µM"),
    ("CN1C(=O)C(Cl)(C(Cl)(Cl)S(=O)(=O)O)C(=O)c2ccccc21 (stereo not drawn)", "> 100 µM"),
    ("CCOc1ccccc1NC(=O)CCc1nc(=S)[nH][nH]1", "> 100 µM"),
    ("CCN(CC)CCCC(C)Nc1c2ccc(C)cc2nc2ccc(OC)cc12 (stereo not drawn)", "15.7 µM"),
    ("COC(=O)C1=C(CS(=O)c2ccccc2[N+](=O)[O-])ON(C)C1c1ccccc1 (stereo not drawn)", "> 100 µM"),
    ("S=c1nc(-c2cccnc2)[nH][nH]1", "> 100 µM"),
    ("CN(C)CCNc1ncnc2nc(-c3ccc4ccccc4c3)[nH]c12", "> 100 µM"),
    ("CC1(C)Oc2ccc(NC(=O)CCC(N)C(=O)O)cc2O1 (stereo not drawn)", "> 100 µM"),
    ("CCO/C(O)=C(/C(=N)N1CCCC1)C(=O)Nc1cccc(C(F)(F)F)c1", "> 100 µM"),
    ("O=C(N[C@H]1c2ccsc2/C(=N/O)[C@H]1O)C(F)(F)F", "> 100 µM"),
    ("C/C(=N\\NC(N)=S)c1nc2ccc(Cl)cc2[nH]1", "9.19 µM"),
    ("C=C(C)C1CC=C(C)C2(C1)OCC(C)(C)C(C)O2 (stereo not drawn)", "53.7 µM"),
    ("Cc1c2c(OCCCCN3CCN(c4ncccn4)CC3)nn(C)c(=O)c2c(C)n1-c1ccccc1", "35.4 µM"),
    ("Fc1cccc(Cl)c1/C=N\\N=C1c2ccccc2-c2ccccc21", "> 100 µM"),
    ("Cc1ccc(S(=O)(=O)c2c(O)c3ccccc3n(C)c2=O)cc1", "> 100 µM"),
    ("C1=CC=C2NCCOCCNC3=CC=CC=CC3=NCCOCCN=C2C=C1", "> 100 µM"),
    ("Cc1ccc2c(c1)C(c1cccc3ccccc13)OC2=O (stereo not drawn)", "> 100 µM"),
    ("COc1cc2c(cc1OC)-c1c3c(cc4c1[C@@H](C2)N(C)CC4)OCO3", "50.6 µM"),
]
